experiment: Effect of different intervals between administration and a meal on pharmacokinetic parameters (three-period crossover, single oral dose); assay type: in vivo, human; settings: male, human, plasma, po, 7.5 mg, single oral 7.5 mg; Group C, high-fat and high-calorie standard meal 2 h after administration; N = 14; read-out: Tmax Median
Property name: Tmax (h)
Hi! Could you send only the number? It should be in h, unit omitted.

Query: Give the measured Tmax of CC1=NN(c2ccc3c(c2)CCCC3)C(=O)/C1=N\Nc1cccc(-c2ccc(C(=O)O)o2)c1O [compound represented by Formula I] .
Response: 5.01

---

test: Effect of different intervals between administration and a meal on pharmacokinetic parameters (three-period crossover, single oral dose); format: in vivo, human; details: male, human, plasma, po, 7.5 mg, single oral 7.5 mg; Group C, high-fat meal 2 h after administration; N = 14; read-out: Cmax Mean SD
Property name: Cmax (ng/mL)
Hi! Could you send only the number? It should be in ng/mL, unit omitted.

Query: Give the measured Cmax of CC1=NN(c2ccc3c(c2)CCCC3)C(=O)/C1=N\Nc1cccc(-c2ccc(C(=O)O)o2)c1O [compound represented by Formula I] .
Response: 28.6

Values from patent US20220071961A1
